target: 5-HT3AB receptor (Homo sapiens, UniProt O95264+P46098); construct: gene HTR3A; heteromeric (pentameric) receptor expressed recombinantly in HEK293 cells; cell membranes; sites at A+A- and possibly A+B- interfaces; with 5-hydroxytryptamine receptor 3B; assay: [3H]granisetron competition binding, HEK293 membranes; conditions: read-out: pKi (AB) (converted)
Sequence (P46098 24-478): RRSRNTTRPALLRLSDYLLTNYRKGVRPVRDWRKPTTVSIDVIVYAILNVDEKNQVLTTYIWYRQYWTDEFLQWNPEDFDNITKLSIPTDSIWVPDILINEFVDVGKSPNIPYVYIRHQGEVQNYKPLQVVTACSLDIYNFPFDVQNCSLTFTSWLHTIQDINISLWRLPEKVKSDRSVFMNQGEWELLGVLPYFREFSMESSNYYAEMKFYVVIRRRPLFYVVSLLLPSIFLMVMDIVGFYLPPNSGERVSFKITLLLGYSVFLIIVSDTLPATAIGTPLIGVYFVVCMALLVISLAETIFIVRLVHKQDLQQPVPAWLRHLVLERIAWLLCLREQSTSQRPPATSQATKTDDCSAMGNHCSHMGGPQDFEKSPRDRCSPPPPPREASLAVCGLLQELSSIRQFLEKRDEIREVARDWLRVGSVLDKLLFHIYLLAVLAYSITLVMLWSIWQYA
Sequence (O95264 22-441): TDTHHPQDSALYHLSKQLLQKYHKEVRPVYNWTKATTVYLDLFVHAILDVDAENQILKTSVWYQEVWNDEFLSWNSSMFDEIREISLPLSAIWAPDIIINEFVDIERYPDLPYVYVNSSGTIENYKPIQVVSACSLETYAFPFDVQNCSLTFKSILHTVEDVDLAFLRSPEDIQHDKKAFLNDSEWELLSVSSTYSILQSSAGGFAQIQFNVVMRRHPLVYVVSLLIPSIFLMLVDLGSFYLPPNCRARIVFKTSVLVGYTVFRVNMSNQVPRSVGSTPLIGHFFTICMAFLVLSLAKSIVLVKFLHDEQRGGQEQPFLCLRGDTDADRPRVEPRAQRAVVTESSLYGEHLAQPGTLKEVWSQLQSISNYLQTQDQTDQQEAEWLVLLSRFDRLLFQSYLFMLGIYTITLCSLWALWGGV
Lab note: anything with Ki below 10 nM is marked fulfilled; values at 10 nM or higher are marked not fulfilled.

>  <compound>
CN1CCN(c2nc3ccccc3[nH]c2=O)CC1 [compound 1]

>  <category>
fulfilled

$$$$
>  <compound>
CN1CCN(c2nc3ccccc3nc2Br)CC1 [compound 14]

>  <category>
fulfilled

$$$$
>  <compound>
CN1CCN(c2nc3ccccc3nc2Oc2ccccc2)CC1 [compound 31, 31]

>  <category>
not fulfilled

$$$$

Problem: Given the entry CN1CCCN(c2cnc3ccccc3n2)CC1 [compound 19] , would its reported Ki be below 10 nM?
Solution: not fulfilled

Problem: Given the entry Cc1nc2ccccc2nc1N1CCN(C)CC1 [compound 26, 26] , would its reported Ki be below 10 nM?
Solution: fulfilled

Problem: Given the entry CN1CCN(c2nc3ccc(Cl)cc3[nH]c2=O)CC1 [compound 22] , would its reported Ki be below 10 nM?
Solution: fulfilled

Problem: Given the entry CN1CCN(c2nc3ccccc3nc2N)CC1 [compound 10] , would its reported Ki be below 10 nM?
Solution: not fulfilled

Problem: Given the entry CN1CCN(c2nc3ccccc3nc2OCc2ccccc2)CC1 [compound 32, 32] , would its reported Ki be below 10 nM?
Solution: not fulfilled

Problem: Given the entry COc1nc2ccccc2nc1N1CCN(C)CC1 [compound 28, 28] , would its reported Ki be below 10 nM?
Solution: fulfilled

Problem: Given the entry CNC1CCN(c2cnc3ccccc3n2)C1 (stereo not shown) [compound 21] , would its reported Ki be below 10 nM?
Solution: not fulfilled

Problem: Given the entry CN1CCN(c2nc3cc(Cl)c(Cl)cc3[nH]c2=O)CC1 [compound 34, 34] , would its reported Ki be below 10 nM?
Solution: not fulfilled

Problem: Given the entry CN1CCN(c2nc3ccccc3nc2Cl)CC1 [VUF10166] , would its reported Ki be below 10 nM?
Solution: not fulfilled

Problem: Given the entry CCc1nc2ccccc2nc1N1CCN(C)CC1 [compound 6] , would its reported Ki be below 10 nM?
Solution: fulfilled

Problem: Given the entry CCOc1nc2ccccc2nc1N1CCN(C)CC1 [compound 29, 29] , would its reported Ki be below 10 nM?
Solution: fulfilled

Problem: Given the entry CN1CCCN(c2nc3ccccc3nc2Cl)CC1 [compound 16] , would its reported Ki be below 10 nM?
Solution: fulfilled

Problem: Given the entry CN1CCN(c2nc3cc(Cl)c(Cl)cc3nc2Cl)CC1 [compound 11] , would its reported Ki be below 10 nM?
Solution: not fulfilled

Problem: Given the entry CN1CCN(c2cnc3cc(Cl)c(Cl)cc3n2)CC1 [compound 7] , would its reported Ki be below 10 nM?
Solution: fulfilled

Problem: Given the entry CN1CCN(c2nc3ccccc3nc2C(F)(F)F)CC1 [compound 27, 27] , would its reported Ki be below 10 nM?
Solution: not fulfilled

Problem: Given the entry CNC1CCN(c2nc3ccccc3nc2Cl)C1 (stereo not shown) [compound 18] , would its reported Ki be below 10 nM?
Solution: not fulfilled

Problem: Given the entry CN1CCN(c2nc3ccc(Cl)cc3nc2Cl)CC1 [compound 23] , would its reported Ki be below 10 nM?
Solution: not fulfilled

Problem: Given the entry CN1CCN(c2nc3ccccc3nc2OC2CCCCC2)CC1 [compound 30, 30] , would its reported Ki be below 10 nM?
Solution: not fulfilled

Problem: Given the entry CN1CCN(c2cnc3cc(Cl)ccc3n2)CC1 [compound 33, 33] , would its reported Ki be below 10 nM?
Solution: not fulfilled
